Values compiled from paper PMC9482650.

target: SCRIB_1, Q14160; test: holdup assay; set-up: key: below the threshold = too weak to quantify, mostly under pKd 3.1 to 4; settings: plain residues with an end cap or a label only (N-terminal biotin on a linker: ado-ado)
Sequence (Q14160 718-814): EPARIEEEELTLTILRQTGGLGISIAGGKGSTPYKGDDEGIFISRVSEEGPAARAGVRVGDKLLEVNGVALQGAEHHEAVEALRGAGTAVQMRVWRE
measuredParameter: pKd

1. FHSIKQSTAV [CRHR1, P34998]	4.01
2. NNMAFETTHF [SLC5A12, Q1EHB4]	4.14
3. KIEDVEITLV [FCHSD2, O94868]	3.8
4. PAALPESTHM [SLC9A3, P48764]	3.57
5. TNSKQGETTV [FZD1, Q9UP38]	4.07
6. TKEIPNCTSV [SORCS3, Q9UPU3]	4.53
7. ADEMICITTL [CACNA1D, Q01668]	4.89
8. SGDGKTSVWI [GJC1, P36383]	3.94
9. KKTPVSRSHL [SLC22A3, O75751]	3.91
10. DSEEELPTRL [GRK6, P43250]	3.53
11. VCMGDHWFDV [PRKN, O60260]	3.55
12. IKLETKKTKL [SLC15A2, Q16348]	3.79
13. VYEVPVETKF [SLC26A3, P40879]	4.18
14. HYPASPDSWV [CTNND2, Q9UQB3]	4.06
15. SRPHTNETSL [MCC, P23508]	5.26
16. KLQNPNQSVV [TYRP1, P17643]	3.52
17. HLSTRQGTCV [ATRNL1, Q5VV63]	3.66
